Reference source: patent US12559545

Target: T1, NiVM-G
T1 chain: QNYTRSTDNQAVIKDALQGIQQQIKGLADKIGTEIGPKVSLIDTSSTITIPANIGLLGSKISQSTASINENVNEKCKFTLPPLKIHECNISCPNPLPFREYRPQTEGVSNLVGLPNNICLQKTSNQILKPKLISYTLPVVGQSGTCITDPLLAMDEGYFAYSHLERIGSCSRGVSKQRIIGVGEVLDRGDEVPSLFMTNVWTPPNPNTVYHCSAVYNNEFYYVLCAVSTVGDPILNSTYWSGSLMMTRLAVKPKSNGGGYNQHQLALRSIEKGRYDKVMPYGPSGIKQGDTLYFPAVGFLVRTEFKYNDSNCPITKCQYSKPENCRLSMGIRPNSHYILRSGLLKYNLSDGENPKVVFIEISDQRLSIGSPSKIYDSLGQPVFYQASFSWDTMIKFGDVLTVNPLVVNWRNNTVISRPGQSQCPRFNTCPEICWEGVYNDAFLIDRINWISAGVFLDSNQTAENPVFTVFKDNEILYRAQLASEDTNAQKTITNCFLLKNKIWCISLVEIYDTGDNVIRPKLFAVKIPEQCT
Here, each record is paired with measured pEC50 data.
Value format note: pEC50 is -log10 of concentration (mol/L); just state the number.

1. HENV-58 (antibody, V domains shown) VH: QVQLVQSGAEVKKPGSSVKVSCKASGGTFSNYVISWVRQAPGQGFEWMGRIIPMIGISNYAQKFQDRVTITADKDESTTTAYMELRGLRSEDTAMYYCASSTVTEVGAWGQGTLVTVSS VL: AIQLTQSPSSLSASIGDRVTITCRASQGISSALAWFQQKPGKPPILLIYDASSLESGVPARFSGSGSGTDFTLTISSLQPEDFATYYCQQFYNHPLTFGPGTKVDIK    9.13
2. HENV-99 (antibody, V domains shown) VH: QVLLVQSGAEVRKPGASVKVSCRASGYTFTDYYMHWVRQAPGQGLEWMGWINPNSGATKYAQKFQGRVTLTRDTSINTAYMELSGLRSVDTAVFYCASVPPSGFFYWGSDYWGQGTLVTVSS VL: DVVLTQSPLSLPVTLGQPASISCRSSQSLVYSDGTTYLNWFQQRPGQSPRRLIYKVSYRDSGVPDRFSGSGSGTDFTLEISRVEAEDVGIYYCMHGTHWETWTFGQGTKVEIK    9.53
3. HENV-117 (antibody, V domains shown) VH: QVQLQQWGAGLLKPSETLSLTCDLSGGSFTNYYWTWIRHLPGKGLEWLGEINHSGRTNYSPSLKSRVTISVDTSKNQFSLRLSSVTAADTAVYYCARDIRKLAPKPHSYDLYYGMDVWGQGTTVTVSS VL: EIVLTQSPGTLSLSPGERATLSCRASQSVGSNYLTWYQQKPGQPPRLLIYGASNRAAGIPDRFSGSGSGTDFTLTISRLEPEDFAVYYCQQYETSSRTFGQGTKVDIR    8.91
4. HENV-142 (antibody, V domains shown) VH: QVRLQESGPRLVKPSQTLSLTCTVSGGSISSRDYYWSWIRQHPGKGLEWIGYIYYSGTTYYNPSLESRVTLSLDTSKNQFSLDLTSVTAADTAVYHCARVWLGGGVFDFWGQGTLVTVSA VL: EIVMTQSPDTLSVSPGERATLSCRASHSVTTNLAWYQQRPGQAPRLLIFDASTRATGIPARFSGSGSGTEFTLTIGSLQSEDFAVYYCQQYNDGRTFGQGTKVEIK    8.99

Consider the binder shown here: HENV-184 (antibody, V domains shown) VH: QVQLVQSGTEVKNPGSSVKVSCKASGGTFSGFGISWVRQAPGQGLEWMGGVLPIFGSPNYAQKFQGRVTITADESTGTAYMDLSSLRSDDTAMYYCARDQSGGFFDYWGQGTLVIVSS VL: EIVLTQSPATLSLSPGERATLSCRASQSVSSNLAWYQQKPGQAPRLLIYDASDRATGVPARFSGSGSGTDFTLTISSLEPEDFALYYCQQRYNWRVTFGQGTRLEIK What is its recorded pEC50?
9.21

Consider the binder HENV-122 (antibody, V domains shown) VH: EVQLLESGGGLVQPGGSLRLSCAASGFTFSTNAMSWVRQAPGKGLEWVSTVSGSGAHPNYGDSVKGRFTISRVNSKNTLFLQMSSLRAEDTAIYYCARVSTVTVGGHIPRGYYFDYWGQGTLVTVSS VL: EILLTQSPGTLSLSPGERATLSCRASQSASSSYLAWYQQKPGQAPRLLIYGASTRATGIPDRFSGSGSGTEFTLTISRLESEDFAVYYCHHYGSSRTFGQGTKVEVK and give its measured pEC50.
9.39

I would be grateful if you could share the reported pEC50 for HENV-103 (antibody, V domains shown) VH: QVQLQGSGPGLVKPSQTLSLTCSVSGGSVSRSGYYWGWIRQHPGKGLECIGYIYYSGITYYNPSLSGRLTISVDTSKNQFSLELSSVTAADTAVYYCARVWLGGGVFDFWGQGSLVTVSS VL: EIVMTQSPATLSVSPGEGATLSCRASQSVSSNLAWYQQKPGQAPRLLIYDASTRATGIPARFSGSGSGTEFTLTISSLQSEDFAVYYCQQYNDWRTFGRGTKVEMR .
9.21
